Reference source: patent US12091411B2

- assayed target: IRAK4 (Homo sapiens, UniProt Q9NWZ3)
- Construct: Degradation of IRAK4 in OCI-LY10 was quantitatively measured using Meso Scale Discovery technology; endogenous in cells; host or cells: OCI-LY10
- Sequence (Q9NWZ3 1-460): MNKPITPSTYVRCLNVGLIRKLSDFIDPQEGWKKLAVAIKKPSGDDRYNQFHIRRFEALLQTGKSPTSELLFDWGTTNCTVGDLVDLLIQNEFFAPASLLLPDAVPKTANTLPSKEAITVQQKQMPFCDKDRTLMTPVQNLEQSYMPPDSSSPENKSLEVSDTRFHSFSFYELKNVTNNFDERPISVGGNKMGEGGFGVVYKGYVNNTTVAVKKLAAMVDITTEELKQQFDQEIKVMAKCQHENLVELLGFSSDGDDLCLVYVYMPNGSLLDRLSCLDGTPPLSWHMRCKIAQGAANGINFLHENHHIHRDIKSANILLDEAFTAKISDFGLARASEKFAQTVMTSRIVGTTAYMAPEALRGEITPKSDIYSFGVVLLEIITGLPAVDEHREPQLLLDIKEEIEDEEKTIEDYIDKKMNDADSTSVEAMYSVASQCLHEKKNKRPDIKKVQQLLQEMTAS
- assay procedure: IRAK4 MSD Degradation in OCI-LY10
- Assay type: cell-based
- setup conditions: OCI-LY10 cells, 4 hrs incubation, MSD; read-out: IRAK4 degradation in OCI-LY10 at 4 hrs: DC50
In this section we review reported DC50 values for a set of compounds.

Sample answers from the record:
{"compound": "Cn1c(=O)n(C2CCC(=O)NC2=O)c2cccc([C@H]3C[C@](O)(CN4CCN(C[C@H]5CC[C@H](n6cc(NC(=O)c7cnn8ccc(N9C[C@H]%10CC9CO%10)nc78)c(C(F)F)n6)CC5)CC4)C3)c21 (stereo partly drawn) [I-580]", "assayed target": "IRAK4 (Homo sapiens, UniProt Q9NWZ3)", "DC50": "> 200 nM"}
{"compound": "Cn1c(=O)n(C2CCC(=O)NC2=O)c2cccc(C#CCN3CCN(C[C@H]4CC[C@H](n5cc(NC(=O)c6cnn7ccc(N8CCC(F)(F)CC8)nc67)c(C(F)F)n5)CC4)CC3)c21 (stereo partly drawn) [I-434]", "assayed target": "IRAK4 (Homo sapiens, UniProt Q9NWZ3)", "DC50": "> 200 nM"}
{"compound": "O=C1CCC(c2cccc(C#CCN3CCN(C[C@H]4CC[C@@H](n5cc(NC(=O)c6cnn7ccc(N8C[C@@H]9C[C@H]8CO9)nc67)c(C(F)F)n5)CC4)CC3)c2)C(=O)N1 (stereo partly drawn) [I-125]", "assayed target": "IRAK4 (Homo sapiens, UniProt Q9NWZ3)", "DC50": "> 200 nM"}
{"compound": "Cn1c(=O)n(C2CCC(=O)NC2=O)c2cccc(C#CCN3C[C@@H]4C[C@H]3CN4C[C@H]3CC[C@H](n4cc(NC(=O)c5cnn6ccc(N7C[C@H]8C[C@@H]7CO8)nc56)c(C(F)F)n4)CC3)c21 (stereo partly drawn) [I-50]", "assayed target": "IRAK4 (Homo sapiens, UniProt Q9NWZ3)", "DC50": "10 to 100 nM"}

Okay, now this compound:
I have this compound here, COc1cc2nn([C@H]3CC[C@H](CN4CC[C@H](c5cccc6c5n(C)c(=O)n6C5CCC(=O)NC5=O)[C@@H](F)C4)CC3)cc2cc1NC(=O)c1cccc(C(F)(F)F)n1 (stereo partly drawn) [I-784] , and I need its recorded DC50.
> 200 nM

====

In this section we review reported DC50 values for a set of molecules.
- assayed target: IRAK4 (Homo sapiens)
- Construct: Degradation of IRAK4 in OCI-LY10 was quantitatively measured using Meso Scale Discovery technology; endogenous in cells; host or cells: OCI-LY10
- Sequence (Q9NWZ3 1-460): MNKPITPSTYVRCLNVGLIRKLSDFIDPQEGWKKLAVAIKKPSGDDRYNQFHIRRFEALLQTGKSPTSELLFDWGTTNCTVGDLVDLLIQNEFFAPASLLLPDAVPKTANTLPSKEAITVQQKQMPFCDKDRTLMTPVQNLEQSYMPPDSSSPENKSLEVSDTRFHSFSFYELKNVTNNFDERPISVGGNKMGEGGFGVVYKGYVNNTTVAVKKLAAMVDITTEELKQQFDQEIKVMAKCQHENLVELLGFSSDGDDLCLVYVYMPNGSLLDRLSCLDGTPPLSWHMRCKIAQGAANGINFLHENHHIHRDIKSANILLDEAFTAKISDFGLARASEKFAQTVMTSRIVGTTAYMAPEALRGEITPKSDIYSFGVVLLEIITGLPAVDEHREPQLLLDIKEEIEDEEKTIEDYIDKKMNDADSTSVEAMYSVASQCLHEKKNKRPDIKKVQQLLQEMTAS
- assay procedure: IRAK4 MSD Degradation in OCI-LY10
- Type: cell-based
- setup conditions: OCI-LY10 cells, 24 hrs incubation, MSD; read-out: IRAK4 degradation in OCI-LY10 at 24 hrs: DC50

{"molecule": "Cn1c(=O)n(C2CCC(=O)NC2=O)c2cccc(N3CC(CO[C@H]4CCN(C[C@H]5CC[C@H](n6cc(NC(=O)c7cnn8ccc(N9C[C@H]%10CC9CO%10)nc78)c(C(F)F)n6)CC5)C[C@H]4F)C3)c21 (some centres unmarked)", "DC50": "< 10 nM"}

I have this molecule here, COc1cc2nn([C@H]3CC[C@H](CN4CCC5(CC4)CCN(c4c(OC)ccc6c4n(C)c(=O)n6C4CCC(=O)NC4=O)CC5)CC3)cc2cc1NC(=O)c1cncc(C#N)c1 (some centres unmarked) , and I need its recorded DC50.
< 10 nM

I have this molecule here, Cn1c(=O)n(C2CCC(=O)NC2=O)c2cccc(N3CCN(CC4COC5(C4)CN(C[C@H]4CC[C@H](n6cc7cc(NC(=O)c8cccc(C(F)(F)F)n8)c(C(C)(C)O)cc7n6)CC4)C5)CC3)c21 (some centres unmarked) , and I need its recorded DC50.
> 200 nM

I have this molecule here, CC1CCN(c2ccn3ncc(C(=O)Nc4cn([C@H]5CC[C@H](CN6CCN(CC#Cc7cccc8c7n(C)c(=O)n8C7CCC(=O)NC7=O)CC6)CC5)nc4C(F)F)c3n2)CC1 (some centres unmarked) , and I need its recorded DC50.
10 to 100 nM

I have this molecule here, Cn1c(=O)n(C2CCC(=O)NC2=O)c2cccc(N3CC(F)(CN(C)[C@H]4CC[C@H](n5cc6cc(NC(=O)c7cccc(C(F)(F)F)n7)ccc6n5)CC4)C3)c21 (some centres unmarked) , and I need its recorded DC50.
> 200 nM

====

- assayed target: IRAK4 (Homo sapiens)
- Construct: Degradation of IRAK4 in OCI-LY10 was quantitatively measured using Meso Scale Discovery technology; endogenous in cells; host or cells: OCI-LY10
- Sequence (Q9NWZ3 1-460): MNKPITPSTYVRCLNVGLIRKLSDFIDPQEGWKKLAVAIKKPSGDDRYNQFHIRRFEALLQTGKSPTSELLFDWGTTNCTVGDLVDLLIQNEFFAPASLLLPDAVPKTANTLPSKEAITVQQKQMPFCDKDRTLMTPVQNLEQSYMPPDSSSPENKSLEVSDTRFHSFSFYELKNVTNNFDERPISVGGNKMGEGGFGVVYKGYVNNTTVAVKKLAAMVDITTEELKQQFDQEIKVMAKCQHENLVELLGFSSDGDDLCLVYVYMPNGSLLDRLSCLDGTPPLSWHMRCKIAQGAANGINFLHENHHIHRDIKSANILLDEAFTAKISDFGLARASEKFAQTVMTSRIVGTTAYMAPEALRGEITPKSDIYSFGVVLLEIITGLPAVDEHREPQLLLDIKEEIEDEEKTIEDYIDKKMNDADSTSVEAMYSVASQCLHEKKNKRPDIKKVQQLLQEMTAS
- assay procedure: IRAK4 MSD Degradation in OCI-LY10
- Assay type: cell-based
- setup conditions: OCI-LY10 cells, 24 hrs incubation, MSD; read-out: IRAK4 degradation in OCI-LY10 at 24 hrs: DC50
outcome measure: DC50

Sample answers from the record:
{"compound": "Cn1c(=O)n(C2CCC(=O)NC2=O)c2ccc(N3CCN(CC4COC5(C4)CN(C[C@H]4CC[C@H](n6cc(NC(=O)c7cnn8ccc(N9C[C@H]%10C[C@@H]9CO%10)nc78)c(C(F)F)n6)CC4)C5)CC3)cc21 (stereo partly drawn) [I-712]", "DC50": "< 10 nM"}
{"compound": "Cn1c(=O)n(C2CCC(=O)NC2=O)c2cccc(N3CCN(C4CCN(C[C@H]5CC[C@H](n6cc(NC(=O)c7cnn8ccc(N9C[C@H]%10C[C@@H]9CO%10)nc78)c(C(F)F)n6)CC5)CC4)CC3)c21 (stereo partly drawn) [I-62]", "DC50": "> 200 nM"}

I have this compound here, COc1cc2nn([C@H]3CC[C@H](CN(C)C4CCN(c5cccc6c5n(C)c(=O)n6C5CCC(=O)NC5=O)CC4(F)F)CC3)cc2cc1NC(=O)c1cccc(C(F)(F)F)n1 (stereo partly drawn) [I-475] , and I need its recorded DC50.
> 200 nM
